tested on: Escherichia coli IAI1; experiment: fold change of Putrescine concentration vs plate DMSO controls (fold change (ratio)); higher = more amine produced, active = hit call of the paper (significant change in both replicates, either direction); conditions: incubation time: 27 h, anaerobic, 37 °C
Where a name gives a salt, the structure may show the parent alone.
fold change of Putrescine concentration of 1 or higher: satisfied. Under 1: not satisfied.

Solved cases below.
>>> answer_label("CCN[C@H]1C[C@H](C)S(=O)(=O)c2sc(S(N)(=O)=O)cc21 [Dorzolamide hydrochloride] (20 µM)")
"satisfied"
>>> answer_label("CC(C)Cc1ccc(CC(=O)O)cc1 [Ibufenac] (20 µM)")
"satisfied"
>>> answer_label("CN1CCOC(c2ccccc2)c2ccccc2C1 (centres undefined) [Nefopam hydrochloride] (20 µM)")
"satisfied"
>>> answer_label("C[C@H](CC[C@@H](O[C@@H]1O[C@H](CO[C@@H]2O[C@H](CO)[C@@H](O)[C@H](O)[C@H]2O)[C@@H](O)[C@H](O)[C@H]1O[C@@H]1O[C@H](CO)[C@@H](O)[C@H](O)[C@H]1O)C(C)(C)O)[C@H]1CC[C@@]2(C)[C@@H]3CC=C4[C@@H](CC[C@H](O[C@@H]5O[C@H](CO[C@@H]6O[C@H](CO)[C@@H](O)[C@H](O)[C@H]6O)[C@@H](O)[C@H](O)[C@H]5O)C4(C)C)[C@]3(C)[C@H](O)C[C@]12C [Mogroside V] (50 µM)")
"not satisfied"
>>> answer_label("NCCc1ccc(O)c(O)c1 [Dopamine hydrochloride] (20 µM)")
"not satisfied"
>>> answer_label("CCCC(CCC)C(=O)O[C@H]1C[C@H]2CC[C@@H](C1)[N+]2(C)C [Anisotropine Methylbromide] (20 µM)")
"satisfied"
>>> answer_label("COc1ccccc1N1CCN(CCCCNC(=O)c2ccc3ccccc3c2)CC1 (20 µM)")
"satisfied"
>>> answer_label("NS(=O)(=O)c1cc2c(cc1Cl)NC(CC1CCCC1)NS2(=O)=O (centres undefined) [Cyclopenthiazide] (20 µM)")
"satisfied"
>>> answer_label("CC(C(=O)O)c1ccc(N2CC=CC2)c(Cl)c1 (centres undefined) [Pirprofen] (20 µM)")
"satisfied"
>>> answer_label("NC(=O)c1cc[n+](CC2=C(C(=O)[O-])N3C(=O)[C@@H](NC(=O)[C@@H](c4ccccc4)S(=O)(=O)O)[C@H]3SC2)cc1 [Cefsulodin sodium salt] (20 µM)")
"not satisfied"

# check: fold change of Putrescine concentration of O=C(O)c1cn(-c2ccc(F)cc2)c2cc(N3CCNCC3)c(F)cc2c1=O [Sarafloxacin] (20 µM) is greater than or equal to 1
not satisfied

Please give the result for CC(C)(C)NC[C@H](O)c1ccc(O)c(CO)c1 [Levalbuterol hydrochloride] (20 µM) too.
satisfied

Please give the result for CCCCC[C@H](O)/C=C/[C@H]1[C@H](O)CC(=O)[C@@H]1CCCCCCC(=O)O [Alprostadil] (20 µM) too.
satisfied

Please give the result for CC(=O)OCC1=C(C(=O)O)N2C(=O)[C@@H](NC(=O)Cc3cccs3)[C@H]2SC1 [Cephalothin sodium salt] (20 µM) too.
satisfied

Please give the result for CC(=O)[C@H]1CC[C@H]2[C@@H]3CCC4=CC(=O)CC[C@]4(C)[C@H]3CC[C@]12C [Progesterone] (20 µM) too.
satisfied
